Cited source for all entries: ChEMBL document CHEMBL4177770

# System Name: Nonstructural protein 5A (Hepatitis C virus)
# Sequence (whole entry): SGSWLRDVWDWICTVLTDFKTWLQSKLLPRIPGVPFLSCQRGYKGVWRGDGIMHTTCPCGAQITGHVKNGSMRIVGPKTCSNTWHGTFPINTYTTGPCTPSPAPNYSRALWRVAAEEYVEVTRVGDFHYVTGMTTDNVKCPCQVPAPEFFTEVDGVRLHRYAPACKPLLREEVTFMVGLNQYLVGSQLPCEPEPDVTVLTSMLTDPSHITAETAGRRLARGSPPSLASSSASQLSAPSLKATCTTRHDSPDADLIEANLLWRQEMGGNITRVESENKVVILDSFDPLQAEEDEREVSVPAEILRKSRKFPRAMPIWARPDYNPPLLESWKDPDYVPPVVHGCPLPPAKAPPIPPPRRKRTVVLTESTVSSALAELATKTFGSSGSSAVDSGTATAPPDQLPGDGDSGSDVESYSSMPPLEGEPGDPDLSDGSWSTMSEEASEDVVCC
# Assay Notes: Inhibition of NS5A in HCV genotype 1b infected in HuH7 replicon cells assessed as decrease in viral replication after 3 days by RT-PCR method
# Assay type: cell-based
# Condition Parameters: Hepatitis C virus subtype 1b
Property Name: EC90

Lookup: EC90 lookup needed for "COC(=O)N[C@H](C(=O)N1CCC[C@H]1c1ncc(-c2cc(F)c3c(c2)O[C@@H](c2nc4c(s2)CCC4)n2c-3cc3cc(-c4cnc([C@@H]5CCCN5C(=O)[C@@H](NC(=O)OC)[C@@H]5CCOC(C)(C)C5)[nH]4)ccc32)[nH]1)C(C)C" , thanks.
Found: 4 pM

###

# System Name: Nonstructural protein 5A (Hepatitis C virus)
# Assay Notes: Inhibition of NS5A L31V mutant in HCV genotype 1a infected in HuH7 replicon cells assessed as decrease in viral replication after 3 days by RT-PCR method
# Format: cell-based
# Condition Parameters: Hepatitis C virus subtype 1a
EC90 values for the compounds below.
Form entry: value (pM) — number only.

Answered examples (7):
COC(=O)N[C@H](C(=O)N1CCC[C@H]1c1ncc(-c2cc(F)c3c(c2)O[C@@H](c2cnc(C(C)C)s2)n2c-3cc3cc(-c4cnc([C@@H]5CCCN5C(=O)[C@@H](NC(=O)OC)[C@@H]5CCOC(C)(C)C5)[nH]4)ccc32)[nH]1)C(C)C
4
COC(=O)N[C@H](C(=O)N1CCC[C@H]1c1ncc(-c2cc(F)c3c(c2)O[C@@H](c2ccc(C4CC4)s2)n2c-3cc3cc(-c4cnc([C@@H]5CCCN5C(=O)[C@@H](NC(=O)OC)C5CCO[C@@H](C)C5)[nH]4)ccc32)[nH]1)C(C)C (stereo partly drawn)
2
COC(=O)N[C@H](C(=O)N1CCC[C@H]1c1ncc(-c2cc(F)c3c(c2)O[C@@H](c2ccc(C4CC4)s2)n2c-3cc3cc(-c4cnc([C@@H]5CCCN5C(=O)[C@@H](NC(=O)OC)[C@@H]5CCOC(C)(C)C5)[nH]4)ccc32)[nH]1)C(C)C
4.3
COC(=O)N[C@H](C(=O)N1CCC[C@H]1c1ncc(-c2cc(F)c3c(c2)O[C@@H](c2ccc4c(c2)CCCO4)n2c-3cc3cc(-c4cnc([C@@H]5CCCN5C(=O)[C@@H](NC(=O)OC)C5CCOCC5)[nH]4)ccc32)[nH]1)C(C)C
7
COC(=O)N[C@H](C(=O)N1CCC[C@H]1c1ncc(-c2cc(F)c3c(c2)O[C@@H](c2ccc(C4CC4)s2)n2c-3cc3cc(-c4cnc([C@@H]5CCCN5C(=O)[C@@H](NC(=O)OC)C5CCO[C@H](C)C5)[nH]4)ccc32)[nH]1)C(C)C (stereo partly drawn)
3
COC(=O)N[C@H](C(=O)N1CCC[C@H]1c1ncc(-c2cc(F)c3c(c2)O[C@@H](c2ccc(C(C)C)s2)n2c-3cc3cc(-c4cnc([C@@H]5CCCN5C(=O)[C@@H](NC(=O)OC)[C@@H]5CCOC(C)(C)C5)[nH]4)ccc32)[nH]1)C(C)C
4
COC(=O)N[C@H](C(=O)N1CCC[C@H]1c1ncc(-c2cc(F)c3c(c2)O[C@@H](c2ccc(C4CC4)s2)n2c-3cc3cc(-c4cnc([C@@H]5CCCN5C(=O)[C@@H](NC(=O)OC)C5C[C@@H](C)O[C@H](C)C5)[nH]4)ccc32)[nH]1)C(C)C (stereo partly drawn)
4

Turning now to a further compound:
Lookup: Recorded EC90 of "CCc1ccc([C@@H]2Oc3cc(-c4cnc([C@@H]5CCCN5C(=O)[C@@H](NC(=O)OC)C(C)C)[nH]4)cc(F)c3-c3cc4cc(-c5cnc([C@@H]6CCCN6C(=O)[C@@H](NC(=O)OC)[C@@H]6CCOC(C)(C)C6)[nH]5)ccc4n32)s1" , please.
Found: 3

###

# Assay Notes: Cmax in Wistar Han rat at 100 mg/kg, po by LC/MS method
# Type: ADME, organism-based
# Parameters: dose 100 mg/kg, route oral
# Condition Parameters: in vivo
Property Name: Cmax (nM)
# number only, unit nM dropped from output

Examples with answers:
COC(=O)N[C@H](C(=O)N1CCC[C@H]1c1ncc(-c2cc(F)c3c(c2)O[C@@H](c2ccc(C4CC4)s2)n2c-3cc3cc(-c4cnc([C@@H]5CCCN5C(=O)[C@@H](NC(=O)OC)C5C[C@@H](C)O[C@H](C)C5)[nH]4)ccc32)[nH]1)C(C)C (some centres undefined)
240
COC(=O)N[C@H](C(=O)N1CCC[C@H]1c1ncc(-c2cc(F)c3c(c2)O[C@@H](c2ccc(C4CC4)s2)n2c-3cc3cc(-c4cnc([C@@H]5CCCN5C(=O)[C@@H](NC(=O)OC)[C@@H]5CCOC(C)(C)C5)[nH]4)ccc32)[nH]1)C(C)C
760
COC(=O)N[C@H](C(=O)N1CCC[C@H]1c1ncc(-c2cc(F)c3c(c2)O[C@@H](c2ccc(C4CC4)s2)n2c-3cc3cc(-c4cnc([C@@H]5CCCN5C(=O)[C@@H](NC(=O)OC)C5C[C@@H](C)O[C@@H](C)C5)[nH]4)ccc32)[nH]1)C(C)C (some centres undefined)
220

Lookup: Cmax for "COC(=O)N[C@H](C(=O)N1CCC[C@H]1c1ncc(-c2cc(F)c3c(c2)O[C@@H](c2ccc(C4CC4)s2)n2c-3cc3cc(-c4cnc([C@@H]5CCCN5C(=O)[C@@H](NC(=O)OC)C5CCOCC5)[nH]4)ccc32)[nH]1)C(C)C" ?
Found: 200

###

# System Name: Nonstructural protein 5A (Hepatitis C virus)
# Assay Notes: Inhibition of NS5A L31V mutant in HCV genotype 1a infected in HuH7 replicon cells assessed as decrease in viral replication after 3 days by RT-PCR method
# Type: cell-based
# Condition Parameters: Hepatitis C virus subtype 1a
EC90 values by entry

Previously resolved entries follow.
COC(=O)N[C@H](C(=O)N1CCC[C@H]1c1ncc(-c2cc(F)c3c(c2)O[C@@H](c2ccc(C4CC4)s2)n2c-3cc3cc(-c4cnc([C@@H]5CCCN5C(=O)[C@@H](NC(=O)OC)C5CC6CCC(C5)O6)[nH]4)ccc32)[nH]1)C(C)C (some centres undefined)
6 pM
COC(=O)N[C@H](C(=O)N1CCC[C@H]1c1ncc(-c2cc(F)c3c(c2)O[C@@H](c2ccc(C4CC4)s2)n2c-3cc3cc(-c4cnc([C@@H]5CCCN5C(=O)[C@@H](NC(=O)OC)C5CCOC6(CC6)C5)[nH]4)ccc32)[nH]1)C(C)C (some centres undefined)
7 pM
COC(=O)N[C@H](C(=O)N1CCC[C@H]1c1ncc(-c2cc(F)c3c(c2)O[C@@H](c2ccc4c(c2)O[C@@H](C)CC4)n2c-3cc3cc(-c4cnc([C@@H]5CCCN5C(=O)[C@@H](NC(=O)OC)[C@@H]5CCOC(C)(C)C5)[nH]4)ccc32)[nH]1)C(C)C
5 pM

In the following, a different compound is considered.
Lookup: For "COC(=O)N[C@H](C(=O)N1CCC[C@H]1c1ncc(-c2cc(F)c3c(c2)O[C@@H](c2ccc4c(c2)OCCC4)n2c-3cc3cc(-c4cnc([C@@H]5CCCN5C(=O)[C@@H](NC(=O)OC)C5CCOCC5)[nH]4)ccc32)[nH]1)C(C)C" , what is its reported EC90?
Found: 5 pM

###

# Assay Notes: Oral bioavailability in Wistar Han rat at 10 mg/kg by LC/MS method
# Format: ADME, organism-based
# Condition Parameters: in vivo
Property Name: bioavailability (%)
Unit % implied. Number only.

Some compounds with recorded bioavailability:
COC(=O)N[C@H](C(=O)N1CCC[C@H]1c1ncc(-c2cc(F)c3c(c2)O[C@@H](c2ccc(C4CC4)s2)n2c-3cc3cc(-c4cnc([C@@H]5CCCN5C(=O)[C@@H](NC(=O)OC)C5CC(C)(C)OC(C)(C)C5)[nH]4)ccc32)[nH]1)C(C)C
3.1
CCc1ccc([C@@H]2Oc3cc(-c4cnc([C@@H]5CCCN5C(=O)[C@@H](NC(=O)OC)[C@@H]5CCOC(C)(C)C5)[nH]4)cc(F)c3-c3cc4cc(-c5cnc([C@@H]6CCCN6C(=O)[C@@H](NC(=O)OC)C(C)C)[nH]5)ccc4n32)s1
1.2
CCc1ncc([C@@H]2Oc3cc(-c4cnc([C@@H]5CCCN5C(=O)[C@@H](NC(=O)OC)C(C)C)[nH]4)cc(F)c3-c3cc4cc(-c5cnc([C@@H]6CCCN6C(=O)[C@@H](NC(=O)OC)[C@@H]6CCOC(C)(C)C6)[nH]5)ccc4n32)s1
0.8

Lookup: Query: bioavailability; subject: "COC(=O)N[C@H](C(=O)N1CCC[C@H]1c1ncc(-c2cc(F)c3c(c2)O[C@@H](c2cc4c(s2)CCC4)n2c-3cc3cc(-c4cnc([C@@H]5CCCN5C(=O)[C@@H](NC(=O)OC)[C@@H]5CCOC(C)(C)C5)[nH]4)ccc32)[nH]1)C(C)C"
Found: 10.2
